# Assay notes: yeast display, Sf9 membrane polyspecificity reagent, FACS + sequencing; frameworks hold sequencing errors
Recorded metric: polyreactivity (PSR sort gate)

• QVQLLESGGGLVQAGGSLRLSCAPSGSTFGYYAMGWYRPAPGKERELVAAITSGGRTYYADSVKGRFTISRDNAKNTVYLQMISLKPEETAVYYFAAIYRTYNKFDYWGQGTQVTVSS = high polyreactivity
• QVQLVESGGGLVQAGGSLRLSCAASGSIFGNNAMGWYRKAPGKERELVAAISSGGSTKYADSVKGRFTISRDNAKNTVYLQMNSLKPEDTAVYYCAKDSWSRAYSWATRVHWRYDYWGQGTQVTVSS = low polyreactivity
• QVQLVESGGGLVQAGASLRLSCAASGLNFKRNAMGWYRQAPGKERELVAAIRYSTDSTNYADSVKGRFTISRDNAKNTVFLQMNSLKPEDTAVYYCAKDKQDYEYWGQGTLVTVSS = low polyreactivity
• QVQLVESGGGLVQAGGSLRLSCAASGSTFTSYAMGWYRQAPGKERELVASIRSTSGRTYYADSVKGRFTISRDNAKNTVYLQMNSLKPEDTAVYYCAAATYGTWWTYADNPYDYWGQGTQVTVSS = high polyreactivity
• QVQLVESGGVLVQAGGSLRLSCAASGFTLKWNAMGWYRQAPGKERELVARISRSGGSTNYADSVKGRFTISRDNAKNTVYLQMISLKPEDTAVFYCNTPSSREMDYWGQGTQVTVSS = low polyreactivity
• QVQLVESGGGLVQAGVSLRLSCAASGSIFSYNAMGWYRQAPGKERELVAAISRCSGSTYYADSVKGRFTISRDIAKNTVYLQMNSLKPEDTAVYYCAGRPKTIPSYYLGYHVRFDYWGQGTQVTVSS = low polyreactivity
• QFQLVESGGGLVQAGGSLRLSCAASGSICVLYPMGWYRQAPGKERELVAAITSGASTNYADSVKGRFTISRDNAKNTVYLQMNSQKPEDTAVYYCNTGSRLDRVDSWGQGTQLTVSS = low polyreactivity
• QVQLVESGGGLVQAGGSLRLSCAASGSILLDNAMGWSRQAPGKERELVAAISLSGGGSTYYADSVKGRFTISRDNAKNTVYLQMNSLKPEATAVYYCAAASTYPLPYDYWGQGTQVTVSS = low polyreactivity
• QVQLVESGGGLVQAGGSLRLSCAASGRTFRINAMGWYRHAPGKERELVAAITRGDTNYADSVKGRFTISRDNAKNTVYLQMNSLKPEDTAVYYCNAELSFRYPVFRELDYWGQGTQVTVSS = low polyreactivity
• QVQLVESGGGLVQAGGSLRLSCAASGRIFNRYAMGWSRQAPGKERELVAAITTSADSTYADSVKGRFTISRDNAKNTVYLQRNSLKPEDTAVYYCNVASRQGSTYDYWGQGTQVTVSS = high polyreactivity
• QVQLVESGGGLVQAGGSLRLSCAASGSTFAFNAMGWYRHAPGKERELVATISQSGGSTYYADSVKGRFTFSRDNAKNTVYLQKNSLKPEDTSVYYCAKRYWSKWYGRYDYWRQGTQVTVSS = low polyreactivity

---

# Assay notes: yeast display, Sf9 membrane polyspecificity reagent, FACS + sequencing; frameworks hold sequencing errors
Recorded metric: polyreactivity (PSR sort gate)

- QVQLVESGGGLVQAGGSLRLSCAASGSISVVNMGWYRQPPRKERQFVASITSSGSTTYADSVKGRFTISRDNAKNTVYLQMNSLKPEDTAVYYCAADVGTDYTYQHPAGAAYDYWGEGTQVTVSS: low polyreactivity
- QVQIVESGAGLVQAGGTLRISCAPSGITFTPYAMGWYRQAPGKEWELVATITSDGGSTYYADSVKGRFTISRDNAKNTVYLQKNSLKPEETAVYYCAAADHAWLYGWGYSLDVWYYYWGQGNQVTVSS: low polyreactivity
